src = patent US12662489B2

Attribute: IC50
# testedOn: MTHFD2 recombinant human enzyme (Homo sapiens, UniProt P13995)
# Sequence (P13995 36-350): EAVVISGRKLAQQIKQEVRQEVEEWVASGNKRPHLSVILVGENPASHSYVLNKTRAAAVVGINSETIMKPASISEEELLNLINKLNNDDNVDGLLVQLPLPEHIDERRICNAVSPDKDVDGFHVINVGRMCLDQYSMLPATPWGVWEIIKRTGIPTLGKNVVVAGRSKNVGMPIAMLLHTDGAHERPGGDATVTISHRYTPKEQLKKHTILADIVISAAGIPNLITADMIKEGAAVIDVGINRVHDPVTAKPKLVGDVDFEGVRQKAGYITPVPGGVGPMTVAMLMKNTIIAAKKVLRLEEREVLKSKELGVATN
# methodDescription: MTHFD2 inhibition assay (NAD(P)H-Glo luminescence)
endpoint: IC50

# compound, testedOn, recordedValue
data = [
    ("COC[C@H]1CN(c2cc(C)c3c4c(c(=O)oc3c2C)CN(C(=O)c2ccc(C(=O)NS(=O)(=O)N3CCCC3)c(OC3C5CC6CC(C5)CC3C6)c2F)CC4)CCN1C (some centres unmarked)", "MTHFD2 recombinant human enzyme (Homo sapiens, UniProt P13995)", "10 to 100 nM"),
    ("COC[C@H]1CN(c2cc(C)c3c4c(c(=O)oc3c2C)CN(C(=O)c2cc(N(C)C)c(C(=O)NS(=O)(=O)N3CCC(OC)CC3)cc2F)CC4)CCN1C", "MTHFD2 recombinant human enzyme (Homo sapiens, UniProt P13995)", "10 to 100 nM"),
    ("COC[C@H]1CN(c2cc(C)c3c4c(c(=O)oc3c2C)CN(C(=O)c2ccc(C(=O)NS(=O)(=O)N(C)C)c(N3CC5CCC3C5)c2)CC4)CCN1C (some centres unmarked)", "MTHFD2 recombinant human enzyme (Homo sapiens, UniProt P13995)", "10 to 100 nM"),
    ("COC[C@H]1CN(c2cc(C)c3c4c(c(=O)oc3c2C)CN(C(=O)c2ccc(C(=O)NS(=O)(=O)N3CCCC3)c(N3CCC(F)(F)C3)c2)CC4)CCN1C", "MTHFD2 recombinant human enzyme (Homo sapiens, UniProt P13995)", "1 to 10 nM"),
    ("COC[C@H]1CN(c2cc(C)c3c4c(c(=O)oc3c2C)CN(C(=O)c2ccc(C(=O)NS(=O)(=O)N3CCC5(CC3)CC5)c(OC)c2F)CC4)CCN1C", "MTHFD2 recombinant human enzyme (Homo sapiens, UniProt P13995)", "10 to 100 nM"),
]
